# Tested on: A549 NSCLC
# test: NCI tumour cell line growth inhibition, 48 h
TGI overview
experimental.readout: TGI (µM)

                                    compound  qual  experimental_result
 0             O=C1CSC(Cc2nc3ccccc3[nH]2)=N1     =                 79.5
 1  Cc1[nH][nH]c(=O)c1C=Nc1ccc(-c2nc3ccccc3[nH]2)cc1     >                  100
 2  CCC1c2[nH]c3ccccc3c2C[C@H]2C(=O)NC(COC(C)(C)C)C(=O)N12 (stereo partly specified)     >                  100
 3  CCN(CC)c1ccc2cc(-c3nnc(-c4ccccc4)o3)c(=O)oc2c1     >                  100
 4  Cc1cccc(NC(=O)/C=C/c2ccc(N(CCC#N)CCC#N)cc2C)c1     >                  100
 5  CCOC(=O)N1CCN(C(=O)c2ccc(C(F)(F)F)nc2Nc2cc(Cl)ccc2C)CC1     >                  100
 6  CC1=C(C(N)=O)C(c2ccncc2)C(C#N)=C2SCC(=O)N12 (stereo unspecified)     >                  100
 7  CC(=O)N(C(=O)CC(=O)N/N=C\c1ccc(Br)c(N(CCC#N)CCC#N)c1)c1ccc(Cl)cc1     >                  100
 8  Cc1n(Cc2ccc3ccccc3c2)cc[n+]1Cc1ccc2ccccc2c1     =                 21.3
 9  O=C1/C(=C\c2cccn2Cc2ccccc2)c2ccccc2N1c1c(Cl)cccc1Cl     >                  100
10      CC(=O)c1c(CBr)n([O-])c2ccccc2[n+]1=O     =                   57
11          O=C(N/N=C\c1cc(Br)ccc1O)c1ccncc1     >                  100
12  CC1=CC(C2/C(=N/O)C=C(C)CC2(C)C)C(O)C(C)(C)C1 (stereo unspecified)     =                 29.6
13  Cc1c[n+](Cc2ccc3ccccc3c2)cn1Cc1ccc2ccccc2c1     =                 18.7
14  Cc1cccc2c1Oc1cc(Cl)ccc1C2NC(=O)CCN1CCOCC1 (stereo unspecified)     >                  100
15  COc1cc2c(cc1OC)C13CCN4CC5=CCOC6CC(=O)N2C1C6C5CC43O (stereo unspecified)     >                  100
16  CC(=O)OCC1OC([S-])C(OC(C)=O)C(OC(C)=O)C1OC(C)=O.CC[PH+](CC)CC.CC[PH+](CC)CC.[Au].[Au] (stereo unspecified)     =                    4
17    CC(=O)Oc1ccc(Nc2c3ccccc3nc3ccccc23)cc1     =                 1.87
18            CN(C)c1ccc2nc3ccc(=O)cc-3sc2c1     =                 3.02
19  COc1ccc(-c2cc(-c3cccn3C)c(C#N)c(N)n2)cc1OC     >                  100
20  O=c1[nH]c2cc(Cl)ccc2n1C1CCN(CCCC(c2ccc(F)cc2)c2ccc(F)cc2)CC1     =                 3.39

* * *

TGI overview
# Tested on: SK-MEL-28 melanoma
# test: NCI tumour cell line growth inhibition, 48 h
experimental.readout: TGI (µM)

                                   molecule         test_system  qual  experimental_result
0          O=C(Nc1ccc(Cl)cc1F)c1cc(Br)ccc1O  SK-MEL-28 melanoma     =                 3.19
1  Cc1c[n+](Cc2ccc3ccccc3c2)cn1Cc1ccc2ccccc2c1  SK-MEL-28 melanoma     =                  3.7
2  CCC1OC2C(CC=C(C)C)=C3OC(C)(O)C(C)(CC)C(OC(=O)c4ccccc4)C3=C3OC(=O)C=C1C32 (stereo not given)  SK-MEL-28 melanoma     >                  100
3  N#CC(/C(=N/NC(=O)C(=O)NN)C(=O)NC12CC3CC(CC(C3)C1)C2)c1ccccc1 (stereo not given)  SK-MEL-28 melanoma     >                  100
4            CN(C)c1ccc2nc3ccc(=O)cc-3sc2c1  SK-MEL-28 melanoma     =                 27.1

* * *

# Test system: KM12 colon
# test: NCI tumour cell line growth inhibition, 48 h
experimental.readout: TGI

In [3]: df
Out[3]:
                                    compound  test_system  experimental_result
 0  CC(C)CC1[C@@H](OCc2ccccc2)COS(=O)N1Cc1ccccc1 (stereo partly drawn)   KM12 colon              96.2 µM
 1  CC1=NC(=Cc2ccc(O)cc2)C(=O)N1n1c(-c2ccccc2)nc2ccccc2c1=O   KM12 colon             > 100 µM
 2  O=C(/C=C/c1c(O)ccc2ccccc12)c1ccc2ccccc2c1   KM12 colon             > 100 µM
 3  COC(=O)C1=C(C)NC(C)=C(C(=O)OC)C1c1ccc(/[N+]([O-])=C/c2ccccc2)cc1   KM12 colon             > 100 µM
 4  CC(=O)OC1CC2c3cccc4c3C(CC2N(C)C1=O)CN4C(=O)c1ccccc1 (stereo not drawn)   KM12 colon              55.8 µM
 5  COc1ccc(C2C(C#N)=C(N)OC3=C2COc2ccc(F)cc23)cc1OC (stereo not drawn)   KM12 colon              69.2 µM
 6  Cc1ccc(Nc2nc(N)c(C(=O)c3ccc(C#N)cc3)s2)cc1   KM12 colon            > 87.1 µM
 7  O=C(O)c1ccccc1-c1ccccc1C(=O)Nc1ccc2c(c1)Cc1cc(F)ccc1-2   KM12 colon             > 100 µM
 8  COC1=C(Br)[C@H](O)[C@@]2(C=C1Br)CC(C(=O)NCCCCCN=C(N)N)=NO2   KM12 colon              > 10 µM
 9  Nc1ccc(C(=O)NN2C(=O)C(Cl)C2c2ccccc2Cl)cc1 (stereo not drawn)   KM12 colon              24.5 µM
10  CSC1(CC(=O)N(C)C)C(=O)Nc2ccccc21 (stereo not drawn)   KM12 colon             > 100 µM
11  COC(CN(C(=O)c1ccccc1)C1CCC2(SCCS2)c2[nH]c3ccccc3c21)OC (stereo not drawn)   KM12 colon             > 100 µM
12     O=c1cc(-c2ccccc2)[nH]c2cc3c(cc12)OCO3   KM12 colon            > 93.1 µM

* * *

# System: ACHN renal
# test: NCI tumour cell line growth inhibition, 48 h
TGI overview
experimental.readout: TGI

                                   molecule  experimental_result
0  O=[N+]([O-])c1ccc(-n2nnc(C3=NCCCN3)c2-c2ccc(Cl)cc2)cc1             > 100 µM
1             O=C1CSC(Cc2nc3ccccc3[nH]2)=N1              9.79 µM
2  O=C(CCC(=O)Nc1cccc(Cl)c1)CC(=O)c1ccc(Cl)cc1             > 100 µM
3  O=C(Nc1cccc(Cl)c1Cl)c1cccc(NC2=C(Cl)C(=O)N(Cc3ccccc3)C2=O)c1             > 100 µM
4  CCN(CC)CCNCC(=O)Oc1ccc(/C=C/C(=O)CC(=O)/C=C/c2ccc(OC(=O)CNCCN(CC)CC)c(OC)c2)cc1OC              20.8 µM
5  O=C(Nc1ccc([N+](=O)[O-])cc1)C1C(=O)C(=O)N(c2ccc([N+](=O)[O-])cc2)C1=O (centres undefined)             > 100 µM
6  COc1ccc(-n2cc(-c3ccc(Cl)c(Cl)c3)nc2SCc2cccc(C#N)c2)cc1             > 100 µM
7  Fc1ccc(Nc2cc(-n3nnc4ccccc43)nc3ccccc23)cc1             > 100 µM
8  O=c1c(-c2ccccc2)c(SCCCN2CCN(c3cccc(Cl)c3)CC2)n(-c2ccccc2)c(=S)n1-c1ccccc1             > 100 µM

* * *

# Test system: HCT-116 colon
# test: NCI tumour cell line growth inhibition, 48 h; in the data active = GI50 below about 0.43 µM; inactive = the rest
Labels: true (active), false (inactive)

                                    compound  label
 0  COc1cc(NC(C)CCCN)c2nccc(C)c2c1OC (centres undefined)  false
 1  Cc1sc2nc(NCCc3c[nH]c4ccc(Cl)cc34)[nH]c(=O)c2c1C  false
 2  C#CC(=O)Nc1cccc(Nc2nc3c(c(NCc4ccccc4)n2)CCCC3)c1   true
 3  CCN1C(=O)N(CC)C2C1NC(=S)N2/N=C/C=C/c1cccs1 (centres undefined)   true
 4  Nc1c(C(=O)N/N=C/c2ccc(-c3ccc(Cl)cc3)o2)cnn1-c1ccnc2c(C(F)(F)F)cccc12  false
 5  CC(=O)O[C@@H]1C[C@]2(C(C)C)O[C@@]1(C)[C@@H]1CCC(C)=C1[C@@H]2OC(=O)/C=C/c1ccccc1  false
 6  Fc1ccc(Nc2cc(-n3nnc4ccccc43)nc3ccccc23)cc1  false
 7  NC(=O)C(=CNc1nc(-c2ccc(Cl)c(Cl)c2)cs1)C(N)=O  false
 8  CN1CCc2c(Sc3ccc(C(=O)NO)cc3)c3ccccc3n2C1  false
 9            Nc1ccncc1/C=C1/C(=O)Nc2ccccc21  false
10  COc1ccc(C2C(C#N)=C(N)OC3=C2COc2ccc(F)cc23)cc1OC (centres undefined)  false
11  CN(C)Cc1c[nH]c2c1C(=O)c1c(c(O)c3ccccc3c1O)C2=O  false
12  Cc1c(C2Nc3ccccc3C2C)[nH]c2ccccc12 (centres undefined)  false
13  Cc1[nH]n(-c2cccc(Cl)c2)c(=O)c1/C=C1\C=Nc2ccc(Br)cc21  false

Reference source: PubChem BioAssay (NCI)
